# ASSAYED SYSTEM: Neuropilin-1 (Homo sapiens)
# TEST: blockers of CendR peptide binding to NRP-1 – biochemical, FP and AlphaScreen panel, dose response (AID 651650)
# CONDITION SUMMARY: NRP-1 b1b2 / RPARPAR peptide binding, FP or AlphaScreen; run 1, at 100 µM (top of the series)
PARAMETER: inhibition (%)
Lab book: enter the figure in %, no units written.

CC(C)(C)C(=O)c1cnc(Nc2ccccc2)s1 : -10.5

Notebook entry, Neuropilin-1 (Homo sapiens) assay: inhibition of CCc1ccccc1NC(=O)c1ccccc1N1C(=O)C2C3C=CC(C3)C2C1=O (centres undefined) = ?
21.3

Give inhibition (Neuropilin-1 (Homo sapiens)) of the following compound: NC1=NC[C@@H](Cc2ccc(O)cc2)N1CCCCC1CCCCC1
26.5

Find inhibition (Neuropilin-1 (Homo sapiens)) for the entry COc1cccc(OCCNC(=O)Nc2cc(F)c(F)cc2Cl)c1
54.1

Kindly state the measured inhibition obtained for OCCNc1ncnc2ccc(Br)cc12 with Neuropilin-1 (Homo sapiens).
66.8

# get_value(readout= inhibition, system= Neuropilin-1 (Homo sapiens)) for O=C(COc1ccc(S(=O)(=O)N2CCCC2)cc1)Nc1ccc2c(c1)OCCO2
34

I'm curious: which inhibition was measured for COC(=O)c1ccc(Cn2nnc3c(=O)[nH]c(C4CCCN(S(=O)(=O)c5cccc(Cl)c5)C4)nc32)cc1 (centres undefined) tested on Neuropilin-1 (Homo sapiens)?
35.3

Recall the recorded inhibition for COc1ccc(CCN=C2SCC(=O)N2Cc2ccccc2)cc1OC with Neuropilin-1 (Homo sapiens) and state it.
28.8

Form field - read-out: inhibition; system: Neuropilin-1 (Homo sapiens); submitted item: CCOC(=O)[C@@H]1[C@H]2COc3ccccc3[C@@H]2N2C(=O)N(c3ccc(Cl)cc3)C(=O)[C@]12C
48.8

Identify the measured inhibition of CC(C)(C)c1nc(SCC(=O)NCc2ccco2)c2ccccc2n1 for Neuropilin-1 (Homo sapiens).
44.2

Could you share what inhibition was measured for CCn1cc(C(=O)N2CCN(C(=O)c3ccco3)CC2)c2cc(OC)c(OC)cc2c1=O , tested on Neuropilin-1 (Homo sapiens)?
77.9

Fill in the recorded inhibition for this compound, with Neuropilin-1 (Homo sapiens) as test system: CC(OC(=O)c1ccco1)C(=O)Nc1nc(-c2ccccc2)cs1 (centres undefined)
-9.71

Form: Entry = Cc1ccc(C(=O)O)cc1NC(=O)Nc1cccc2ccccc12 | System = Neuropilin-1 (Homo sapiens) | inhibition = ____
30.6

Request: inhibition, test system Neuropilin-1 (Homo sapiens), entry Cc1ccccc1S(=O)(=O)Nc1nc2ccccc2nc1NCCO
25.8
